# Test system: S. aureus ATCC 29213
# ASSAY_EXPLANATION: Drug interaction of 22 with FDA-approved drugs, checkerboard method
# Assay type: cell-based, Staphylococcus aureus
# ASSAY_CONTEXT: combination of 22 with the drug, S. aureus ATCC 29213
MEASUREMENT_KIND: Inference (drug interaction)

CC(C)(O/N=C(\C(=O)N[C@@H]1C(=O)N2C(C(=O)[O-])=C(C[n+]3ccccc3)CS[C@H]12)c1csc(N)n1)C(=O)O	No interaction
CN[C@H](CC(C)C)C(=O)N[C@H]1C(=O)N[C@@H](CC(N)=O)C(=O)N[C@H]2C(=O)N[C@H]3C(=O)N[C@H](C(=O)N[C@H](C(=O)O)c4cc(O)cc(O)c4-c4cc3ccc4O)[C@H](O)c3ccc(c(Cl)c3)Oc3cc2cc(c3O[C@@H]2O[C@H](CO)[C@@H](O)[C@H](O)[C@H]2O[C@H]2C[C@](C)(N)[C@H](O)[C@H](C)O2)Oc2ccc(cc2Cl)[C@H]1O [Vancomycin, reference compound]	No interaction
C[C@@H](O)[C@H]1C(=O)N2C(C(=O)O)=C(S[C@@H]3CN[C@H](C(=O)N(C)C)C3)[C@H](C)[C@H]12 [Meropenem, reference compound]	No interaction

The measured values listed here are drawn from paper PMC8548355.
